# Target desc: LTD4 receptors (Cavia porcellus)
# Sequence (Q2NNR5 1-340): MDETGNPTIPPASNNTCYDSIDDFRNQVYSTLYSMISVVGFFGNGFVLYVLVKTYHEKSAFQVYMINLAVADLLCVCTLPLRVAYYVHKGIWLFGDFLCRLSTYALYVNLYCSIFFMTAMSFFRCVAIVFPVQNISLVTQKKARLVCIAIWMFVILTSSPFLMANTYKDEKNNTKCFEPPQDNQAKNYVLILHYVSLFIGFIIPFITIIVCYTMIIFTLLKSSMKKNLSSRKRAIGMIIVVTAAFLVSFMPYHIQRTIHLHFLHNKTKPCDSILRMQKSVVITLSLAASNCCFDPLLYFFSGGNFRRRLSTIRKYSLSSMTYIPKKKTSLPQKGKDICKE
Structures can show the parent of a compound that is named as a salt.
Measured parameter: Ki
Respond with the figure and its unit, in that order.

Q) What measured Ki goes with CC(C(=O)Nc1ccc(Cc2nnn[nH]2)cc1)c1ccc2cc(OCc3ccc4ccccc4n3)ccc2c1 (stereo not drawn) [Example 5] ?
A) 34 nM

Q) Same thing, different compound: O=C(O)CCCc1ccc(NC(=O)c2ccc3cc(OCc4ccc5ccccc5n4)ccc3c2)cc1 [Example 23]
A) 30 nM

Q) Same thing, different compound: CC(C(=O)Nc1ccc(Cc2nn[nH]n2)cc1)c1ccc2cc(OCc3ccc4ccccc4n3)ccc2c1 (stereo not drawn) [Example 6, (sodium salt)]
A) 32.7 nM

Q) Same thing, different compound: CC(C(=O)NCc1cccc(-c2nnn[nH]2)c1)c1ccc2cc(OCc3ccc4ccccc4n3)ccc2c1 (stereo not drawn) [Example 2]
A) 29.5 nM

Q) Same thing, different compound: CC(C(=O)NCc1ccccc1-c1nnn[nH]1)c1ccc2cc(OCc3ccc4ccccc4n3)ccc2c1 (stereo not drawn) [Example 3]
A) 12 nM

Q) Same thing, different compound: CC(C(=O)Nc1cccc(CC(=O)O)c1)c1ccc2cc(OCc3ccc4ccccc4n3)ccc2c1 (stereo not drawn) [Example 18]
A) 134 nM

Q) Same thing, different compound: CC(C(=O)Nc1ccc(CCCC(=O)O)cc1)c1ccc2cc(OCc3ccc4ccc(Cl)cc4n3)ccc2c1 (stereo not drawn) [Example 20]
A) 190 nM

Q) Same thing, different compound: O=C(O)c1ccc(CCNC(=O)c2ccc3ccc(OCc4ccc5ccccc5n4)cc3c2)cc1 [Example 29]
A) 1 nM

Q) Same thing, different compound: O=C(NCc1cccc(-c2nnn[nH]2)c1)c1ccc2cc(OCc3ccc4ccccc4n3)ccc2c1 [Example 24]
A) 28 nM

----------
# System: mienteric plexus of guinea-pig isolated ileum
# Procedure details: Inhibition of LTD4-induced contractions in the mienteric plexus of guinea-pig isolated ileum
# Measurement parameters: LTD4 3 nM, compound incubated 2.5 minutes
Measured parameter: IC50 (nM)
# number only, unit nM dropped from output

Q) What measured IC50 goes with O=C(O)c1ccc(CCNC(=O)c2ccc3ccc(OCc4ccc5ccccc5n4)cc3c2)cc1 [Example 29] ?
A) 8

Q) Same thing, different molecule: O=C(Cc1ccc2cc(OCc3ccc4ccccc4n3)ccc2c1)NCc1ccc(-c2nnn[nH]2)cc1 [Example 21]
A) 6

Q) Same thing, different molecule: O=C(NCCc1ccc(-c2nnn[nH]2)cc1)c1ccc2ccc(OCc3ccc4ccccc4n3)cc2c1 [Example 30]
A) 24

Q) Same thing, different molecule: O=C(NCc1ccc(-c2nnn[nH]2)cc1)c1ccc2ccc(OCc3ccc4ccccc4n3)cc2c1 [Example 27]
A) 28

Q) Same thing, different molecule: O=C(NCCCc1ccc(-c2nnn[nH]2)cc1)c1ccc2ccc(OCc3ccc4ccccc4n3)cc2c1 [Example 33]
A) 87

Q) Same thing, different molecule: CC(C(=O)NCc1ccc(-c2nnn[nH]2)cc1)c1ccc2cc(OCc3ccc4ccccc4n3)ccc2c1 (centres unmarked) [Example 1]
A) 13

Q) Same thing, different molecule: CC(C(=O)NCc1ccccc1-c1nnn[nH]1)c1ccc2cc(OCc3ccc4ccccc4n3)ccc2c1 (centres unmarked) [Example 3]
A) 18

Q) Same thing, different molecule: O=C(O)CCCc1ccc(NC(=O)c2ccc3ccc(OCc4ccc5ccccc5n4)cc3c2)cc1 [Example 26]
A) 38

Q) Same thing, different molecule: CC(C(=O)NCc1cccc(-c2nnn[nH]2)c1)c1ccc2cc(OCc3ccc4ccccc4n3)ccc2c1 (centres unmarked) [Example 2]
A) 66

Q) Same thing, different molecule: CC(C(=O)NCc1cccc(C(=O)O)c1)c1ccc2cc(OCc3ccc4ccccc4n3)ccc2c1 (centres unmarked) [Example 14]
A) 75

----------
# Tested on: mienteric plexus of guinea-pig isolated ileum
# Procedure details: Inhibition of LTD4-induced contractions in the mienteric plexus of guinea-pig isolated ileum
# Measurement parameters: LTD4 3 nM, compound incubated 2.5 minutes
pIC50: −log10 of the molar value. Counter-ions that a name gives are not always drawn.
Measured parameter: pIC50

Q) What measured pIC50 goes with CC(C(=O)Nc1ccc(CCCC(=O)O)cc1)c1ccc2cc(OCc3ccc4ccccc4n3)ccc2c1 (stereo not shown) [Example 10] ?
A) < 7.00

Q) Same thing, different compound: CC(C(=O)Nc1ccc(Cc2nn[nH]n2)cc1)c1ccc2cc(OCc3ccc4ccccc4n3)ccc2c1 (stereo not shown) [Example 6, (sodium salt)]
A) < 7.00

Q) Same thing, different compound: CC(C(=O)Nc1ccc(Cc2nnn[nH]2)cc1)c1ccc2cc(OCc3ccc4ccccc4n3)ccc2c1 (stereo not shown) [Example 5]
A) < 7.00

Q) Same thing, different compound: O=C(O)CCCc1ccc(NC(=O)c2ccc3cc(OCc4ccc5ccccc5n4)ccc3c2)cc1 [Example 23]
A) < 7.00
